Measured pKd, listed per entry for reference.
- studyTarget: GDP-bound KRAS wild-type protein (Homo sapiens, UniProt P01116)
- Sequence (P01116 1-188 isoform P01116-2): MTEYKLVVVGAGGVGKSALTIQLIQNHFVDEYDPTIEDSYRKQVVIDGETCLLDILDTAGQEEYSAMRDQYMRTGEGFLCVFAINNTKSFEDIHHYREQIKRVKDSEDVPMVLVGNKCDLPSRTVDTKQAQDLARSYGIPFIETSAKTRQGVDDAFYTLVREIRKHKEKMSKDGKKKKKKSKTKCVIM
- assayRemarks: Binding to KRAS by surface plasmon resonance (SPR), dissociation constant KD
- protocolConditions: Single Cycle Kinetics
The value called pKd is obtained by taking minus log10 of the concentration in mol/L.

structuresmilesstring=CCC[C@H]1C(=O)N[C@@H](C2CCCC2)C(=O)N(C)CC(=O)N(C)[C@H]2C/C=C\CCN(C2=O)[C@@H](Cc2ccc(C)cc2)C(=O)N(C)CC(=O)N[C@@H](CCc2ccc(C(F)(F)F)c(OC)c2)C(=O)N2CC3(CC3)C[C@H]2C(=O)N(C)C2(CCC2)C(=O)N(C)[C@@H]([C@@H](C)CC)C(=O)N(C)[C@H](C(=O)N(C)C)CC(=O)N1C numericresult=9.59

Please examine the following record next.
Find the recorded pKd belonging to `C#CC[C@H]1C(=O)N[C@@H]([C@@H](C)CC)C(=O)N2CCC[C@H]2C(=O)N(C)[C@H]2C/C=C\CCN(C2=O)[C@@H](Cc2ccc(C)cc2)C(=O)N(C)CC(=O)N[C@@H](CCc2cc(F)c(C(F)(F)F)c(F)c2)C(=O)N2C[C@H](OCC)C[C@H]2C(=O)N(C)C2(CCC2)C(=O)N(C)[C@@H](C2CCCC2)C(=O)N(C)[C@H](C(=O)N(C)C)CC(=O)N1C` and report it.
10.11

====

- studyTarget: GDP-bound KRAS wild-type protein (Homo sapiens, UniProt P01116)
- assayRemarks: Binding to KRAS by surface plasmon resonance (SPR), dissociation constant KD
- protocolConditions: Single Cycle Kinetics
- Method: Surface plasmon resonance was used to analyze the binding affinity of compounds for KRAS, NRAS, and HRAS. […] The resulting sensorgram was subjected to curve fitting based on a 1:1 binding model on Biacore Insight Evaluation Software or T200 Evaluation Software, and thereby the dissociation constant KD of each compound with respect to KRAS, NRAS, and HRAS was determined. […]
Where a SMILES comes first, the peptide text is derived from it. Bridges are numbered along the chain shown (N, C = ends). [ ]: non-standard residue; d: D form. The star is where a group is joined. hPhe(3,5-F2-4-CF3) = N[C@@H](CCc1cc(F)c(C(F)(F)F)c(F)c1)C(=O)O; NPrPhe(4-CF3) = CCCN[C@@H](Cc1ccc(C(F)(F)F)cc1)C(=O)O; NMeGly(cPent) = CN[C@H](C(=O)O)C1CCCC1; NMeD = CN[C@@H](CC(=O)O)C(=O)O; NMeL = CN[C@@H](CC(C)C)C(=O)O; αMeS = C[C@](N)(CO)C(=O)O; Morpholide = C1CN(*)CCO1; Aze = O=C(O)[C@@H]1CCN1; Sar = CNCC(=O)O
observationType: Kd (nM)
Output spec: scalar in nM, unitless text.

molecule="CCCN1C(=O)CN(C)C(=O)[C@@H]2CCN2C(=O)[C@H]([C@@H](C)CC)NC(=O)[C@H](CC(C)C)N(C)C(=O)C[C@@H](C(=O)N2CCOCC2)N(C)C(=O)[C@H](C2CCCC2)N(C)C(=O)[C@](C)(COC)NC(=O)[C@@H]2CCCN2C(=O)[C@H](CCc2cc(F)c(C(F)(F)F)c(F)c2)NC(=O)CN(C)C(=O)[C@@H]1Cc1ccc(C(F)(F)F)cc1 [PP0779] ([NMeL]I[Aze][Sar][NPrPhe(4-CF3)][Sar][hPhe(3,5-F2-4-CF3)]P[αMeS](Me)[NMeGly(cPent)][NMeD]-Morpholide; lactam N-11)" studytarget="GDP-bound KRAS wild-type protein (Homo sapiens, UniProt P01116)" unitsymbol=nM numericresult=5.1
molecule=CCC[C@H]1C(=O)N[C@@H]([C@@H](C)CC)C(=O)N(C)CC(=O)N(C)[C@H]2C/C=C\CCN(C2=O)[C@@H](Cc2ccc(C)cc2)C(=O)N(C)CC(=O)N[C@@H](CCc2ccc(C(F)(F)F)c(OC)c2)C(=O)N2CC3(CC3)C[C@H]2C(=O)N(C)C2(CCC2)C(=O)N(C)[C@@H](C2CCCC2)C(=O)N(C)[C@H](C(=O)N(C)C)CC(=O)N1C studytarget="GDP-bound KRAS wild-type protein (Homo sapiens, UniProt P01116)" unitsymbol=nM numericresult=0.021
molecule=CCC[C@H]1C(=O)N[C@@H](C2CCCC2)C(=O)N(C)CC(=O)N(C)[C@H]2C/C=C\CCN(C2=O)[C@@H](Cc2ccc(C)cc2)C(=O)N(C)CC(=O)N[C@@H](CCc2cc(F)c(C(F)(F)F)c(F)c2)C(=O)N2CC3(CC3)C[C@H]2C(=O)NC2(CCC2)C(=O)N(C)[C@@H](C(CC)CC)C(=O)N(C)[C@H](C(=O)N(C)C)CC(=O)N1C studytarget="GDP-bound KRAS wild-type protein (Homo sapiens, UniProt P01116)" unitsymbol=nM numericresult=0.77

Quick one: Kd of `CCC[C@H]1C(=O)N[C@@H]([C@@H](C)CC)C(=O)N2CCC[C@H]2C(=O)N(C)[C@H]2C/C=C\CCN(C2=O)[C@@H](Cc2ccc(C(F)(F)F)cc2)C(=O)N(C)CC(=O)N[C@@H](CCc2cc(F)c(C(F)(F)F)c(F)c2)C(=O)N2CC[C@H](OC)[C@H]2C(=O)N(C)C2(CCC2)C(=O)N(C)[C@@H](C2CCCC2)C(=O)N(C)[C@H](C(=O)N(C)C)CC(=O)N1C` ?
0.26

Reported Kd for `CCO[C@@H]1C[C@H]2C(=O)NC(C)(C)C(=O)N(C)[C@@H](C3CCCC3)C(=O)N(CC)[C@H](C(=O)N3CCOCC3)CC(=O)N(C)[C@@H](CC(C)C)C(=O)N[C@@H]([C@@H](C)CC)C(=O)N(C)CC(=O)N(C)[C@H]3CCCCCN(C3=O)[C@@H](Cc3ccc(C(F)(F)F)cc3)C(=O)N(C)CC(=O)N[C@@H](CCc3cc(F)c(C(F)(F)F)c(F)c3)C(=O)N2C1` : what is it?
7.5

# lookup: Kd of `CCO[C@@H]1C[C@H]2C(=O)NC3(CC(C)(C)C3)C(=O)N(C)[C@@H](C3CCCC3)C(=O)N(C)[C@H](C(=O)N(C)C)CC(=O)N(C)[C@@H]([C@@H](C)OC)C(=O)N[C@@H]([C@@H](C)CC)C(=O)N3CCC[C@H]3C(=O)N(C)[C@H]3C/C=C\CCN(C3=O)[C@@H](Cc3ccc(C)cc3)C(=O)N(C)CC(=O)N[C@@H](CCc3ccc(C(F)(F)F)c(Cl)c3)C(=O)N2C1`
0.68

Value lookup for Kd; key = `CCC[C@H]1C(=O)N[C@@H]([C@@H](C)CC)C(=O)N(C)CC(=O)N(C)[C@H]2C/C=C\CCN(C2=O)[C@@H](Cc2ccc(C(F)(F)F)cc2)C(=O)N(C)CC(=O)N[C@@H](CCc2ccc(C(F)(F)F)c(Cl)c2)C(=O)N2CC3(CC3)C[C@H]2C(=O)NC2(CCC2)C(=O)N(C)[C@@H](CC(C)(C)C)C(=O)N(C)[C@H](C(=O)N(C)C)CC(=O)N1C`
0.041

Item under review: `CCC[C@H]1C(=O)N[C@@H]([C@@H](C)CC)C(=O)N(C)CC(=O)N(C)[C@H]2C/C=C\CCN(C2=O)[C@@H](Cc2ccc(C(F)(F)F)cc2)C(=O)N(C)CC(=O)N[C@@H](CCc2ccc(C(F)(F)F)c(Cl)c2)C(=O)N2CC[C@H](OC)[C@H]2C(=O)N(C)C2(CCC2)C(=O)N(C)[C@@H](C2CCCC2)C(=O)N(C)[C@H](C(=O)N(C)C)CC(=O)N1C` . Reported Kd?
0.064
